System: Caco-2 cell monolayers
Assay method text: Transport experiment with Caco-2 cell monolayers
Measurement parameters: Caco-2 cell monolayers, extract 10 mg/mL, AP→BL
Each entry below carries its recorded transport percentage.
The reply should be a number in %, with the unit left off.

1. O=c1cc(-c2ccc(O)c(O)c2)oc2c([C@@H]3O[C@H](CO)[C@@H](O)[C@H](O)[C@H]3O)c(O)cc(O)c12; 30.53

Which transport percentage is reported for this molecule? O=c1cc(-c2ccc(O)c(O)c2)oc2c(C3OC(CO)C(O)C(O)C3OC3OC(CO)C(O)C(O)C3O)c(O)cc(O)c12 (stereo not drawn)
13.41

Fill in: transport percentage of O=C1CC[C@H]2c3cc(O)c(O)cc3CCN12 is ___
135.43

Which transport percentage is reported for this molecule? O=c1cc(-c2ccc(O)cc2)oc2c([C@@H]3O[C@H](CO)[C@@H](O)[C@H](O)[C@H]3O)c(O)cc(O)c12
47.97

Look up transport percentage: COc1cc(C(=O)O)cc(CC=C(C)C)c1O
127.39

Record request: transport percentage value, item COc1ccc(C(=O)O)cc1OC
109.67

###

Measured Papp at 180 min, 30 mg/mL values are reported for all entries that follow.
Assay method text: Transport experiment with Caco-2 cell monolayers
Measurement parameters: human, Caco-2, Papp, Caco-2 cell monolayers, extract 30 mg/mL, BL→AP
Give the value in nm/s but do not write nm/s after it.

Would you please look over these solved cases?
1. COc1ccc(C(=O)O)cc1OC [veratric acid]; 1990
2. O=C1CC[C@H]2c3cc(O)c(O)cc3CCN12 [trolline]; 1840
3. COc1cc(C(=O)O)cc(CC=C(C)C)c1O [proglobeflowery acid]; 1050
4. O=c1cc(-c2ccc(O)c(O)c2)oc2c(C3OC(CO)C(O)C(O)C3OC3OC(CO)C(O)C(O)C3O)c(O)cc(O)c12 [2″-O-β-L-galactopyranosylorientin]; 417
5. O=c1cc(-c2ccc(O)cc2)oc2c([C@@H]3O[C@H](CO)[C@@H](O)[C@H](O)[C@H]3O)c(O)cc(O)c12 [vitexin]; 216

Pending compound:
Papp at 180 min, 30 mg/mL for O=c1cc(-c2ccc(O)c(O)c2)oc2c([C@@H]3O[C@H](CO)[C@@H](O)[C@H](O)[C@H]3O)c(O)cc(O)c12 [orientin] ?
163

###

System: activated intestinal bacteria
Assay method text: Intestinal bacterial transformation of AEOF
Assay type: in vitro ADME, human
Measurement parameters: content in the extract; third of three lines per compound (highest extract concentration, not given)
The entries below come with measured After transformed by intestinal bacteria values attached.
Supply the numeric figure in µg/mL, leaving out any unit text.

Here is how some compounds turned out for After transformed by intestinal bacteria.
1) COc1cc(C(=O)O)cc(CC=C(C)C)c1O [proglobeflowery acid]; 134.85
2) O=c1cc(-c2ccc(O)cc2)oc2c([C@@H]3O[C@H](CO)[C@@H](O)[C@H](O)[C@H]3O)c(O)cc(O)c12 [vitexin]; 11.19
3) O=c1cc(-c2ccc(O)c(O)c2)oc2c(C3OC(CO)C(O)C(O)C3OC3OC(CO)C(O)C(O)C3O)c(O)cc(O)c12 [2″-O-β-L-galactopyranosylorientin]; 100.57
4) O=c1cc(-c2ccc(O)c(O)c2)oc2c([C@@H]3O[C@H](CO)[C@@H](O)[C@H](O)[C@H]3O)c(O)cc(O)c12 [orientin]; 43.42
5) O=c1c(O)c(-c2ccc(O)c(O)c2)oc2cc(O)cc(O)c12 [quercetin]; 8.45

Given the entry COc1ccc(C(=O)O)cc1OC [veratric acid] , report its measured After transformed by intestinal bacteria.
12.78

# query: After transformed by intestinal bacteria of entry O=C1CC[C@H]2c3cc(O)c(O)cc3CCN12 [trolline]
71.00

Reported After transformed by intestinal bacteria for COc1cc(C(=O)O)cc(CC=C(C)C)c1OC1OC(CO)C(O)C(O)C1O (stereo not drawn) [trollioside] : what is it?
0.00

Look at this compound and give its reported After transformed by intestinal bacteria. O=c1c(O[C@@H]2O[C@H](CO)[C@@H](O)[C@H](O)[C@H]2O)c(-c2ccc(O)c(O)c2)oc2cc(O)cc(O)c12 [isoquercetin]
0.00

###

System: activated intestinal bacteria
Assay method text: Intestinal bacterial transformation of AEOF
Type: in vitro ADME, human
Measurement parameters: content in the extract; second of three lines per compound (middle extract concentration, not given)
Measured After transformed by intestinal bacteria by item
The reply should consist of the numeric value with the unit placed after it.

1) O=c1c(O)c(-c2ccc(O)c(O)c2)oc2cc(O)cc(O)c12; 4.02 µg/mL

Suppose we examine the compound O=c1cc(-c2ccc(O)c(O)c2)oc2c(C3OC(CO)C(O)C(O)C3OC3OC(CO)C(O)C(O)C3O)c(O)cc(O)c12 (stereo not drawn) ; what After transformed by intestinal bacteria value has been reported?
56.34 µg/mL

Look up After transformed by intestinal bacteria for this compound: O=c1cc(-c2ccc(O)c(O)c2)oc2c([C@@H]3O[C@H](CO)[C@@H](O)[C@H](O)[C@H]3O)c(O)cc(O)c12
20.38 µg/mL

Fill blank: measured After transformed by intestinal bacteria of the compound COc1cc(C(=O)O)cc(CC=C(C)C)c1OC1OC(CO)C(O)C(O)C1O (stereo not drawn) [trollioside] is ____.
0.00 µg/mL

For the compound O=c1c(O[C@@H]2O[C@H](CO)[C@@H](O)[C@H](O)[C@H]2O)c(-c2ccc(O)c(O)c2)oc2cc(O)cc(O)c12 , what After transformed by intestinal bacteria is on record?
0.00 µg/mL

# input compound: COc1cc(C(=O)O)cc(CC=C(C)C)c1O ; wanted: its After transformed by intestinal bacteria
67.09 µg/mL

So what does the record say about After transformed by intestinal bacteria for COc1ccc(C(=O)O)cc1OC ?
7.44 µg/mL

# After transformed by intestinal bacteria lookup, item O=C1CC[C@H]2c3cc(O)c(O)cc3CCN12
36.28 µg/mL

Fill blank: measured After transformed by intestinal bacteria of the compound O=c1cc(-c2ccc(O)cc2)oc2c([C@@H]3O[C@H](CO)[C@@H](O)[C@H](O)[C@H]3O)c(O)cc(O)c12 is ____.
5.70 µg/mL

###

Tested on: Caco-2 cell monolayers
Assay method text: Transport experiment with Caco-2 cell monolayers
Measurement parameters: Caco-2 cell monolayers, extract 20 mg/mL, BL→AP
transport percentage: recorded values
Give a bare numeral; the unit % is implied.

Please review the following examples before continuing.
1) O=c1cc(-c2ccc(O)c(O)c2)oc2c(C3OC(CO)C(O)C(O)C3OC3OC(CO)C(O)C(O)C3O)c(O)cc(O)c12 (stereo not drawn); 14.08
2) O=C1CC[C@H]2c3cc(O)c(O)cc3CCN12; 78.21
3) COc1ccc(C(=O)O)cc1OC; 84.75

Given the compound O=c1cc(-c2ccc(O)c(O)c2)oc2c([C@@H]3O[C@H](CO)[C@@H](O)[C@H](O)[C@H]3O)c(O)cc(O)c12 , what is its reported transport percentage?
4.76

transport percentage for O=c1cc(-c2ccc(O)cc2)oc2c([C@@H]3O[C@H](CO)[C@@H](O)[C@H](O)[C@H]3O)c(O)cc(O)c12 ?
6.61

Data request, read-out transport percentage, for COc1cc(C(=O)O)cc(CC=C(C)C)c1O
57.32

###

Assay method text: Transport experiment with Caco-2 cell monolayers
Measurement parameters: human, Caco-2, Papp, Caco-2 cell monolayers, extract 10 mg/mL, BL→AP
Measured quantity: Papp at 180 min, 10 mg/mL (nm/s)
Give the number; nm/s is assumed, so skip it.

Solved cases (5 shown):
1) COc1cc(C(=O)O)cc(CC=C(C)C)c1O; 2230
2) O=c1cc(-c2ccc(O)c(O)c2)oc2c([C@@H]3O[C@H](CO)[C@@H](O)[C@H](O)[C@H]3O)c(O)cc(O)c12; 192
3) O=c1cc(-c2ccc(O)c(O)c2)oc2c(C3OC(CO)C(O)C(O)C3OC3OC(CO)C(O)C(O)C3O)c(O)cc(O)c12 (stereo not drawn); 216
4) O=c1cc(-c2ccc(O)cc2)oc2c([C@@H]3O[C@H](CO)[C@@H](O)[C@H](O)[C@H]3O)c(O)cc(O)c12; 283
5) COc1ccc(C(=O)O)cc1OC; 2360

Note: attention shifts to another entry.
Need Papp at 180 min, 10 mg/mL of O=C1CC[C@H]2c3cc(O)c(O)cc3CCN12 , thanks.
2310

###

System: everted gut sacs (jejunum)
Assay method text: Absorption experiment with everted gut sacs
Measurement parameters: Everted gut sacs, extract 20 mg/mL, AP→BL
Please use Met whenever transport percentage is not below 10%, and Not met whenever it is.

1) COc1ccc(C(=O)O)cc1OC; Met
2) O=c1cc(-c2ccc(O)c(O)c2)oc2c(C3OC(CO)C(O)C(O)C3OC3OC(CO)C(O)C(O)C3O)c(O)cc(O)c12 (stereo not drawn); Not met
3) O=c1cc(-c2ccc(O)cc2)oc2c([C@@H]3O[C@H](CO)[C@@H](O)[C@H](O)[C@H]3O)c(O)cc(O)c12; Not met
4) COc1cc(C(=O)O)cc(CC=C(C)C)c1O; Met

Decide: is the reported value of transport percentage for O=c1cc(-c2ccc(O)c(O)c2)oc2c([C@@H]3O[C@H](CO)[C@@H](O)[C@H](O)[C@H]3O)c(O)cc(O)c12 equal to or greater than 10%?
Not met

Does transport percentage meet or surpass 10% for O=C1CC[C@H]2c3cc(O)c(O)cc3CCN12 ?
Met
